- Tested on: SH-SY5Y
- test_details: Cytoprotective activity in human SH-SY5Y cells assessed as increase in Nrf2 mRNA expression level at 10 uM incubated for 6 hrs by RT-PCR analysis
- Type: functional, cell-based
Active and inactive are the calls of the source. No cut-off for these calls is given here.
Outcomes: active, inactive

compound	category
COc1cc(/C=C/C(=O)NCCCCCCNC23CC4CC(C)(CC(C)(C4)C2)C3)ccc1O	active
COc1cc(/C=C/C(=O)NCCCCCNC23CC4CC(C)(CC(C)(C4)C2)C3)ccc1O	inactive
COc1cc(/C=C/C(=O)O)ccc1O [FERULATE]	inactive
COc1cc(/C=C/C(=O)NCCCCNC23CC4CC(C)(CC(C)(C4)C2)C3)ccc1O	inactive

----------
- tested_target: Glutamate NMDA receptor; GRIN1/GRIN2A (Homo sapiens, UniProt Q05586+Q12879)
- Sequence (Q12879 whole entry, other chains not shown): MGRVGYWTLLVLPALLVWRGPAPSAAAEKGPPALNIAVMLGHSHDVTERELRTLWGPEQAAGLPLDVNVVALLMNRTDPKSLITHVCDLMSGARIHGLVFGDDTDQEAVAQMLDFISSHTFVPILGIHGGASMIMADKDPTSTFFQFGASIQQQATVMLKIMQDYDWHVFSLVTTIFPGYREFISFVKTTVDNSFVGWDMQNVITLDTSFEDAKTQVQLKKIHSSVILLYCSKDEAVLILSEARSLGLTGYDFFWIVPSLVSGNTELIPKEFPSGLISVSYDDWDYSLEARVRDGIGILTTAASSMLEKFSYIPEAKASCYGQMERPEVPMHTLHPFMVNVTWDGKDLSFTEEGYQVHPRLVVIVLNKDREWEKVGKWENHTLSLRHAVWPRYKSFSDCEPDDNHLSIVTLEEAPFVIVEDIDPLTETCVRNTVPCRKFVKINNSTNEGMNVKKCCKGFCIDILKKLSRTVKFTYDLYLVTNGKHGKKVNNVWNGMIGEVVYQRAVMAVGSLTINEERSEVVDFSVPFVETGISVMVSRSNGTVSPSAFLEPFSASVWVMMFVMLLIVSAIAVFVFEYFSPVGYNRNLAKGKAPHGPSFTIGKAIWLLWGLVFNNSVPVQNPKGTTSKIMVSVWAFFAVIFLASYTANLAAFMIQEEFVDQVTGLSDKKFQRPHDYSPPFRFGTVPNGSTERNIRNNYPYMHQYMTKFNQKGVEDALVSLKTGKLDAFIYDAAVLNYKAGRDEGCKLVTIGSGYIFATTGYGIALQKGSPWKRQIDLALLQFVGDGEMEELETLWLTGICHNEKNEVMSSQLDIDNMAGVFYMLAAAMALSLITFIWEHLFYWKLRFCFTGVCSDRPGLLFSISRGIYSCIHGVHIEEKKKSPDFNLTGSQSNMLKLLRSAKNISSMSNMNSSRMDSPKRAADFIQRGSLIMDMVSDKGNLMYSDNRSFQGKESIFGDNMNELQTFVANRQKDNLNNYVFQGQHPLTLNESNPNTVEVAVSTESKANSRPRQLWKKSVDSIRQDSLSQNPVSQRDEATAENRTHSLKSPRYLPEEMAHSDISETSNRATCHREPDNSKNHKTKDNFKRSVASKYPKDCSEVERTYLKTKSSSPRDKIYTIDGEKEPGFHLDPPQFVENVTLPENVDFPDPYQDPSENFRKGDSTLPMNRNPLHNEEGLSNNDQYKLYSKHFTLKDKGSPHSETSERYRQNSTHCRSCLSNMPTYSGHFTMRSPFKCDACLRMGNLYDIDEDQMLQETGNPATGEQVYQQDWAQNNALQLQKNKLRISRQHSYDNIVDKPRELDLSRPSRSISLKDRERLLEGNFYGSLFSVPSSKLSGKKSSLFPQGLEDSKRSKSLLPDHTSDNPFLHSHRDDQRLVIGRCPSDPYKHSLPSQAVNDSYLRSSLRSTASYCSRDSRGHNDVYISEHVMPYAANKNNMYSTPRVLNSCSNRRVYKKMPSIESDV
- test_details: Antagonist activity at GluN1a/GluN2A (unknown origin) expressed in Xenopus laevis oocytes at -60 mV holding potential by voltage clamp method
pIC50: −log10 of the molar value.
recorded_metric: pIC50

1. COc1cc(/C=C/C(=O)NCCCCCCNC23CC4CC(C)(CC(C)(C4)C2)C3)ccc1O 5.16
2. COc1cc(/C=C/C(=O)NCCCCNC23CC4CC(C)(CC(C)(C4)C2)C3)ccc1O 4.62
3. COc1cc(/C=C/C(=O)NCCCCCNC23CC4CC(C)(CC(C)(C4)C2)C3)ccc1O 4.85
